# Test system: MS2 coat protein
# protocol details: apparent KD of MS2 coat protein, switch OFF state (with FMN for OFF switches, without FMN for ON switches); designed switch direction (-1 OFF switch, 1 ON switch): -1; higher = weaker reporter binding
# settings: FMN input: 0 or 200 uM; Eterna round: R93 (includes R88 designs)
recorded endpoint: apparent KD of MS2 coat protein (nM)
Answers are plain numbers, in nM.

Study these solved cases before continuing.
[
  {
    "sequence code": "AAAAAUCGAGGAUAUACAUGAGGAUCACCCAUGUCAAAAAAUGACUACACAAAAGAAAGUAGAAGGCGAUAAAA [Ex 3 May 17]",
    "unit name": "nM",
    "apparent KD of MS2 coat protein": 31
  },
  {
    "sequence code": "AUUAUGUCAGGAUAUCAGUAGUAAAAAAAAAAAAUUACUACUGAGAAGGGACAUGAGGAUCACCCAUGUCAAAA [EX4 308: Super Stable 8]",
    "unit name": "nM",
    "apparent KD of MS2 coat protein": 34
  }
]

Now look at this one.
Item GAAAAGUUAGGAUAUACAGAUAAAAAAACGAAAAAAAAUCUGUAGAAGGAACAUGAGGAUCACCCAUGUAAAAG [Mat - Exclusion 4 - Mayanna - D103] has what recorded apparent KD of MS2 coat protein? 30.8

The measurements presented in this section are drawn from the supplement of paper PMC9170038.
